# key: entry, value: IC50
measured-target: PfKRS (cytosolic lysyl tRNA synthetase) (Plasmodium falciparum)
Construct: gene PF3D7_1350100
Sequence (Q8IDJ8 1-583): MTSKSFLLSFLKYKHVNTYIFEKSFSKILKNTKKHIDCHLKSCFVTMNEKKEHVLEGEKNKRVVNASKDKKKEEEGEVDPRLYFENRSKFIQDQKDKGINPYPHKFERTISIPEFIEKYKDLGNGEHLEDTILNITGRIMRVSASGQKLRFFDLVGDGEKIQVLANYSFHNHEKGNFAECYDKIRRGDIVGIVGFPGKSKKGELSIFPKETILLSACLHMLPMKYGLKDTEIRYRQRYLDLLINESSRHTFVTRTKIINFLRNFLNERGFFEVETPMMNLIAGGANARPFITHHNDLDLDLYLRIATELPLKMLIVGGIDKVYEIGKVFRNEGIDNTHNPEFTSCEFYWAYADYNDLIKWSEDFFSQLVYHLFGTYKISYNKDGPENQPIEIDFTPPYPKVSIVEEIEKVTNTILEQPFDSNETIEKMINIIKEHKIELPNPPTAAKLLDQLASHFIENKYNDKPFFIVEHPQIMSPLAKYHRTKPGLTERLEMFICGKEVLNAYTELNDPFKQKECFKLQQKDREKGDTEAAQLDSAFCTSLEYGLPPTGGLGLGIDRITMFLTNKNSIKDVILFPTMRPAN
protocol-description: biochemical
Design: PfKRS lysine activation, pyrophosphate release with BIOMOL Green absorbance at 650 nm
cond: read-out: PfKRS pIC50 (converted)
Only the number, expressed in nM, is required.

O=C(NCC1CCCCC1)c1cc(=O)c2cc(F)cc(NS(=O)(=O)c3ccccc3)c2o1	11.7
C[C@H]1CCC[C@H](C[C@H]2Cc3cc(O)cc(O)c3C(=O)O2)O1	47.9
O=C(NCC1(O)CCC(F)(F)CC1)c1cc(=O)c2cc(F)ccc2o1	240

Attention now shifts to the item below.
query: # input compound: [N-]=[N+]=NCCOCCOCCOCCNC(=O)c1ccc(S(=O)(=O)Nc2cc(F)cc3c(=O)cc(C(=O)NCC4CCCCC4)oc23)cc1 ; wanted: its IC50
result: 22.4
